The reader will find pKi measurements below, all made with SYK kinase (Homo sapiens, UniProt P43405).
pKi: −log10 of the molar value.

Some solved entries appear below for comparison.
[
  {
    "molecule": "COc1ccc2nc(Nc3ccc4c(c3)CCCN4C)c3n[nH]cc3c2c1 [Example #308]",
    "pKi": "7.00 to 8.00"
  },
  {
    "molecule": "COc1cccc2nc(Nc3cccc(S(C)(=O)=O)c3)c3[nH]ncc3c12 [Example #338]",
    "pKi": "6.00 to 7.00"
  },
  {
    "molecule": "COc1ccc2nc(Nc3nccc(N)n3)c3n[nH]cc3c2c1 [Example #139]",
    "pKi": "6.00 to 7.00"
  },
  {
    "molecule": "Ic1ccc2nc(Nc3ccc(N4CCOCC4)cc3)c3[nH]ncc3c2c1 [Example #355]",
    "pKi": "7.00 to 8.00"
  },
  {
    "molecule": "COc1ccc2c(c1)nc(Nc1ccc3c(c1)OCCO3)c1n[nH]cc12 [Example #265]",
    "pKi": "7.00 to 8.00"
  }
]

For each of the molecules below, note its pKi.
1. COc1ccc(Nc2nc3ccc(OC)cc3c3c[nH]nc23)c(OC)c1 [Example #332]
2. COc1ccc2nc(Nc3ccc(OCC(=O)O)c(OC)c3)c3n[nH]cc3c2c1 [Example #279]
3. COc1ccc2nc(Nc3ccc(N4CCN(CC(=O)O)CC4)cc3)c3n[nH]cc3c2c1 [Example #277]
4. COc1ccc2nc(Nc3cccc(N(C)C)c3)c3n[nH]cc3c2c1 [Example #76]

Output:
1: 6.00 to 7.00; 2: 6.00 to 7.00; 3: 7.00 to 8.00; 4: 6.00 to 7.00

###

Target: LRRK2 (Homo sapiens, UniProt Q5S007)
Sequence (Q5S007 970-2527 limits assumed): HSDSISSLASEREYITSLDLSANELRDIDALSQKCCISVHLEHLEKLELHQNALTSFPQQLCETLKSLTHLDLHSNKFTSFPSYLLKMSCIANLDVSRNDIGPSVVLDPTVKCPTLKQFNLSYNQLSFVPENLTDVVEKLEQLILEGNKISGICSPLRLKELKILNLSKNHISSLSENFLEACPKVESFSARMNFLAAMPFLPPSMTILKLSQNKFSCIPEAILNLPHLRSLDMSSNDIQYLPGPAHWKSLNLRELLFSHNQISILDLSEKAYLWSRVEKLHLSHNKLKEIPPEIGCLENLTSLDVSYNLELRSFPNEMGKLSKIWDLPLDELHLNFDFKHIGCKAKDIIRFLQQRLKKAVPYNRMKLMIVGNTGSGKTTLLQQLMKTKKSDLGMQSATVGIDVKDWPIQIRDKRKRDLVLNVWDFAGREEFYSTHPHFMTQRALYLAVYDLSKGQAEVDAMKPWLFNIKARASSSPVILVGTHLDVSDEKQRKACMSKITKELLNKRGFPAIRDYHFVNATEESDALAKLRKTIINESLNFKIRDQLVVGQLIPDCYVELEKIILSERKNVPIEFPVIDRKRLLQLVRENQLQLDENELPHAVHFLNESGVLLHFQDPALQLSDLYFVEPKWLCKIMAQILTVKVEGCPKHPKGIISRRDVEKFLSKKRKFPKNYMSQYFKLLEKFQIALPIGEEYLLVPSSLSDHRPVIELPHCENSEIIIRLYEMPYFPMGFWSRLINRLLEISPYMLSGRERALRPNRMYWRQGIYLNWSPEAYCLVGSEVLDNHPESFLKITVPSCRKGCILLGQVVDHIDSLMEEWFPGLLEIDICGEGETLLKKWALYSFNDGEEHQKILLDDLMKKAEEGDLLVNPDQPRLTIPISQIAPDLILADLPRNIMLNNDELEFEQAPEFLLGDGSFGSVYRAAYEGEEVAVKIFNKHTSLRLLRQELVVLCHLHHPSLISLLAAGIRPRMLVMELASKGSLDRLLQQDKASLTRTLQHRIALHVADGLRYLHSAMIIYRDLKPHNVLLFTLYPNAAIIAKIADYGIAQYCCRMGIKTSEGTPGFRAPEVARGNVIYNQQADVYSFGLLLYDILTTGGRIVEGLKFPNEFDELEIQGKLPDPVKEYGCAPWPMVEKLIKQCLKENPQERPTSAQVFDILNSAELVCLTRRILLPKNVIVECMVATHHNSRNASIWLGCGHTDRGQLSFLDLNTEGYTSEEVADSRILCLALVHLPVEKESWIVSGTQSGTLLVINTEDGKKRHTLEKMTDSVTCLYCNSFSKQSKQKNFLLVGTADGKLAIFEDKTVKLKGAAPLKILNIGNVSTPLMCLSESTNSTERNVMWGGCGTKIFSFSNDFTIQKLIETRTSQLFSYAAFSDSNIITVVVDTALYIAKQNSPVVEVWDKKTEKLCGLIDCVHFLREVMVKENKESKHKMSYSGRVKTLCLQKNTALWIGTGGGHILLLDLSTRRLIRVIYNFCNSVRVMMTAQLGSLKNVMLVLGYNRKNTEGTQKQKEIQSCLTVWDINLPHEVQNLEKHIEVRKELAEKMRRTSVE
Test: LRRK2 assay (LanthaScreen Eu Kinase Binding Assay)
Conditions: 5 nM LRRK2, 10 nM tracer 236, RT 1 h; read-out: LRRK2 Activites: IC50
pIC50: −log10 of the molar value.
Assignment: determine reported pIC50 for the given molecules.

[
  {
    "molecule": "COc1ccc2nc(Nc3ccc(N4CCN(C(C)C)CC4)cc3)c3n[nH]cc3c2c1",
    "property.name": "pIC50",
    "data.value": "7.00 to 8.00"
  },
  {
    "molecule": "COc1cccc2nc(Nc3ccc(N4CCN(C(C)=O)CC4)cc3)c3[nH]ncc3c12",
    "property.name": "pIC50",
    "data.value": "7.00 to 8.00"
  },
  {
    "molecule": "COc1ccc2nc(Nc3ccc(N4CCN(CC(=O)O)CC4)cc3)c3n[nH]cc3c2c1",
    "property.name": "pIC50",
    "data.value": "7.00 to 8.00"
  },
  {
    "molecule": "CCOc1ccc(Nc2nc3ccc(OC)cc3c3cn[nH]c23)cc1OCC",
    "property.name": "pIC50",
    "data.value": "6.00 to 7.00"
  },
  {
    "molecule": "COc1ccc2nc(Nc3ccc(N4CCN(CC5CC5)CC4)cc3)c3n[nH]cc3c2c1",
    "property.name": "pIC50",
    "data.value": "7.00 to 8.00"
  },
  {
    "molecule": "COc1ccc2nc(Nc3ccc4cnn(C)c4c3)c3n[nH]cc3c2c1",
    "property.name": "pIC50",
    "data.value": "6.00 to 7.00"
  },
  {
    "molecule": "COc1ccc2nc(Nc3ccc4oc(=O)[nH]c4c3)c3[nH]ncc3c2c1",
    "property.name": "pIC50",
    "data.value": "6.00 to 7.00"
  },
  {
    "molecule": "COc1ccc2nc(Nc3cccc(C(N)=O)c3)c3n[nH]cc3c2c1",
    "property.name": "pIC50",
    "data.value": "6.00 to 7.00"
  }
]

For each of the molecules below, note its pIC50.
1. COc1ccc2nc(Nc3ccc(N(C)C4CCN(C)CC4)cc3)c3n[nH]cc3c2c1
2. COc1cccc2c1nc(Nc1ccc(N3CCSCC3)cc1)c1n[nH]cc12

Output:
1. 7.00 to 8.00
2. 6.00 to 7.00
